- Test system: SpyCas9 (S. pyogenes), Q99ZW2
- Test name: cell-based or functional assay
So basically, if IC50(uM), FRET cleavage assay comes in under 100 µM it's condition met, and if it's 100 µM or more it's condition not met.

Prompt: In plain terms, does DRSHKILLRYNGCHYRLLQRSL (modifications not checked) [Peptide 90] come in under 100 µM for IC50(uM), FRET cleavage assay?
Completion: condition not met

Prompt: Please let me know if LYYRIMLSCPKYYPCELVGHTS (modifications not checked) [Peptide 50] shows IC50(uM), FRET cleavage assay below 100 µM.
Completion: condition not met

Prompt: Criterion: IC50(uM), FRET cleavage assay strictly below 100 µM. Is it met by RRSHIAWLLAMSLTWYS (modifications not checked) [Peptide 99] ?
Completion: condition met

Prompt: I'd appreciate it if you could check whether VCAFSADESLLIRRRHQRRRAG (modifications not checked) [Peptide 60] has IC50(uM), FRET cleavage assay smaller than 100 µM.
Completion: condition met

Prompt: # strict comparison: is reported IC50(uM), FRET cleavage assay < 100 µM? input = KERRRSLMQLSVKSNSLFLGGT (modifications not checked) [Peptide 82]
Completion: condition not met
